Test: Absorption spectra (λmax, molar absorption coefficient)
Assay type: physicochemical
Details: ethanol solutions
test readout: λmax (nm)

{"smiles input": "CN(C)S(=O)(=O)c1ccc(F)c(-c2c3nc(c(-c4cc(S(=O)(=O)N(C)C)ccc4F)c4ccc([nH]4)c(-c4cc(S(=O)(=O)N(C)C)ccc4F)c4nc(c(-c5cc(S(=O)(=O)N(C)C)ccc5F)c5ccc2[nH]5)CC4)CC3)c1", "measurement": 742.5}
{"smiles input": "CCCCCCCNS(=O)(=O)c1ccc(Cl)c(-c2c3nc(c(-c4c(Cl)ccc(S(=O)(=O)NCCCCCCC)c4Cl)c4ccc([nH]4)c(-c4c(Cl)ccc(S(=O)(=O)NCCCCCCC)c4Cl)c4nc(c(-c5c(Cl)ccc(S(=O)(=O)NCCCCCCC)c5Cl)c5ccc2[nH]5)CC4)CC3)c1Cl", "measurement": 746}
{"smiles input": "O=S(=O)(O)c1ccc(Cl)c(-c2c3nc(c(-c4cc(S(=O)(=O)O)ccc4Cl)c4ccc([nH]4)c(-c4cc(S(=O)(=O)O)ccc4Cl)c4nc(c(-c5cc(S(=O)(=O)O)ccc5Cl)c5ccc2[nH]5)CC4)CC3)c1", "measurement": 746.5}
{"smiles input": "O=S(=O)(O)c1ccc(Cl)c(-c2c3nc(c(-c4c(Cl)ccc(S(=O)(=O)O)c4Cl)c4ccc([nH]4)c(-c4c(Cl)ccc(S(=O)(=O)O)c4Cl)c4nc(c(-c5c(Cl)ccc(S(=O)(=O)O)c5Cl)c5ccc2[nH]5)CC4)CC3)c1Cl", "measurement": 745.0}
{"smiles input": "CNS(=O)(=O)c1ccc(F)c(-c2c3nc(c(-c4cc(S(=O)(=O)NC)ccc4F)c4ccc([nH]4)c(-c4cc(S(=O)(=O)NC)ccc4F)c4nc(c(-c5cc(S(=O)(=O)NC)ccc5F)c5ccc2[nH]5)CC4)CC3)c1", "measurement": 742.5}
{"smiles input": "CCNS(=O)(=O)c1ccc(Cl)c(-c2c3nc(c(-c4c(Cl)ccc(S(=O)(=O)NCC)c4Cl)c4ccc([nH]4)c(-c4c(Cl)ccc(S(=O)(=O)NCC)c4Cl)c4nc(c(-c5c(Cl)ccc(S(=O)(=O)NCC)c5Cl)c5ccc2[nH]5)CC4)CC3)c1Cl", "measurement": 745.5}
{"smiles input": "CNS(=O)(=O)c1ccc(F)c(-c2c3nc(c(-c4c(F)ccc(S(=O)(=O)NC)c4F)c4ccc([nH]4)c(-c4c(F)ccc(S(=O)(=O)NC)c4F)c4nc(c(-c5c(F)ccc(S(=O)(=O)NC)c5F)c5ccc2[nH]5)CC4)CC3)c1F", "measurement": 742.5}

* * *

Assay: n-octanol:water partition coefficient (shake-flask)
Assay type: physicochemical
Quick list: log KOW (n-octanol:water partition coefficient) per entry.
test readout: log KOW (n-octanol:water partition coefficient)

{"smiles input": "CNS(=O)(=O)c1ccc(F)c(-c2c3nc(c(-c4c(F)ccc(S(=O)(=O)NC)c4F)c4ccc([nH]4)c(-c4c(F)ccc(S(=O)(=O)NC)c4F)c4nc(c(-c5c(F)ccc(S(=O)(=O)NC)c5F)c5ccc2[nH]5)CC4)CC3)c1F", "relation symbol": "=", "measurement": 2.7}
{"smiles input": "CN(C)S(=O)(=O)c1ccc(F)c(-c2c3nc(c(-c4cc(S(=O)(=O)N(C)C)ccc4F)c4ccc([nH]4)c(-c4cc(S(=O)(=O)N(C)C)ccc4F)c4nc(c(-c5cc(S(=O)(=O)N(C)C)ccc5F)c5ccc2[nH]5)CC4)CC3)c1", "relation symbol": ">", "measurement": 4}
{"smiles input": "O=S(=O)(O)c1ccc(Cl)c(-c2c3nc(c(-c4c(Cl)ccc(S(=O)(=O)O)c4Cl)c4ccc([nH]4)c(-c4c(Cl)ccc(S(=O)(=O)O)c4Cl)c4nc(c(-c5c(Cl)ccc(S(=O)(=O)O)c5Cl)c5ccc2[nH]5)CC4)CC3)c1Cl", "relation symbol": "=", "measurement": "−1.75"}

* * *

Assay: Singlet oxygen quantum yield and lifetime (1270 nm phosphorescence)
Assay type: physicochemical
Conditions: air-saturated ethanol

{"smiles input": "CCNS(=O)(=O)c1ccc(Cl)c(-c2c3nc(c(-c4c(Cl)ccc(S(=O)(=O)NCC)c4Cl)c4ccc([nH]4)c(-c4c(Cl)ccc(S(=O)(=O)NCC)c4Cl)c4nc(c(-c5c(Cl)ccc(S(=O)(=O)NCC)c5Cl)c5ccc2[nH]5)CC4)CC3)c1Cl", "τΔ (singlet oxygen lifetime) (μsec)": 13.7}
{"smiles input": "CNS(=O)(=O)c1ccc(F)c(-c2c3nc(c(-c4cc(S(=O)(=O)NC)ccc4F)c4ccc([nH]4)c(-c4cc(S(=O)(=O)NC)ccc4F)c4nc(c(-c5cc(S(=O)(=O)NC)ccc5F)c5ccc2[nH]5)CC4)CC3)c1", "τΔ (singlet oxygen lifetime) (μsec)": 14.1}
{"smiles input": "O=S(=O)(O)c1ccc(Cl)c(-c2c3nc(c(-c4c(Cl)ccc(S(=O)(=O)O)c4Cl)c4ccc([nH]4)c(-c4c(Cl)ccc(S(=O)(=O)O)c4Cl)c4nc(c(-c5c(Cl)ccc(S(=O)(=O)O)c5Cl)c5ccc2[nH]5)CC4)CC3)c1Cl", "τΔ (singlet oxygen lifetime) (μsec)": 15.4}
{"smiles input": "O=S(=O)(O)c1ccc(Cl)c(-c2c3nc(c(-c4cc(S(=O)(=O)O)ccc4Cl)c4ccc([nH]4)c(-c4cc(S(=O)(=O)O)ccc4Cl)c4nc(c(-c5cc(S(=O)(=O)O)ccc5Cl)c5ccc2[nH]5)CC4)CC3)c1", "τΔ (singlet oxygen lifetime) (μsec)": 13.6}
{"smiles input": "CCCCCCCNS(=O)(=O)c1ccc(Cl)c(-c2c3nc(c(-c4c(Cl)ccc(S(=O)(=O)NCCCCCCC)c4Cl)c4ccc([nH]4)c(-c4c(Cl)ccc(S(=O)(=O)NCCCCCCC)c4Cl)c4nc(c(-c5c(Cl)ccc(S(=O)(=O)NCCCCCCC)c5Cl)c5ccc2[nH]5)CC4)CC3)c1Cl", "τΔ (singlet oxygen lifetime) (μsec)": 14.3}

* * *

Assay: Absorption spectra (λmax, molar absorption coefficient)
Assay type: physicochemical
Settings: ethanol solutions; corrected for the chlorin content

{"smiles input": "O=S(=O)(O)c1ccc(Cl)c(-c2c3nc(c(-c4c(Cl)ccc(S(=O)(=O)O)c4Cl)c4ccc([nH]4)c(-c4c(Cl)ccc(S(=O)(=O)O)c4Cl)c4nc(c(-c5c(Cl)ccc(S(=O)(=O)O)c5Cl)c5ccc2[nH]5)CC4)CC3)c1Cl", "εmax": "27,000^d) M^−1 cm^−1"}
{"smiles input": "CNS(=O)(=O)c1ccc(F)c(-c2c3nc(c(-c4cc(S(=O)(=O)NC)ccc4F)c4ccc([nH]4)c(-c4cc(S(=O)(=O)NC)ccc4F)c4nc(c(-c5cc(S(=O)(=O)NC)ccc5F)c5ccc2[nH]5)CC4)CC3)c1", "εmax": "62,000^d) M^−1 cm^−1"}
{"smiles input": "O=S(=O)(O)c1ccc(Cl)c(-c2c3nc(c(-c4cc(S(=O)(=O)O)ccc4Cl)c4ccc([nH]4)c(-c4cc(S(=O)(=O)O)ccc4Cl)c4nc(c(-c5cc(S(=O)(=O)O)ccc5Cl)c5ccc2[nH]5)CC4)CC3)c1", "εmax": "23,000^d) M^−1 cm^−1"}
{"smiles input": "CN(C)S(=O)(=O)c1ccc(F)c(-c2c3nc(c(-c4cc(S(=O)(=O)N(C)C)ccc4F)c4ccc([nH]4)c(-c4cc(S(=O)(=O)N(C)C)ccc4F)c4nc(c(-c5cc(S(=O)(=O)N(C)C)ccc5F)c5ccc2[nH]5)CC4)CC3)c1", "εmax": "78,000^d) M^−1 cm^−1"}
{"smiles input": "CNS(=O)(=O)c1ccc(F)c(-c2c3nc(c(-c4c(F)ccc(S(=O)(=O)NC)c4F)c4ccc([nH]4)c(-c4c(F)ccc(S(=O)(=O)NC)c4F)c4nc(c(-c5c(F)ccc(S(=O)(=O)NC)c5F)c5ccc2[nH]5)CC4)CC3)c1F", "εmax": "78,000^d) M^−1 cm^−1"}

* * *

Assay: n-octanol:water partition coefficient (shake-flask)
Assay type: physicochemical
Quick list: log KOW (n-octanol:water partition coefficient) per entry.
test readout: log KOW (n-octanol:water partition coefficient)

{"smiles input": "O=S(=O)(O)c1ccc(Cl)c(-c2c3nc(c(-c4cc(S(=O)(=O)O)ccc4Cl)c4ccc([nH]4)c(-c4cc(S(=O)(=O)O)ccc4Cl)c4nc(c(-c5cc(S(=O)(=O)O)ccc5Cl)c5ccc2[nH]5)CC4)CC3)c1", "measurement": "−1.70"}
{"smiles input": "CCCCCCCNS(=O)(=O)c1ccc(Cl)c(-c2c3nc(c(-c4c(Cl)ccc(S(=O)(=O)NCCCCCCC)c4Cl)c4ccc([nH]4)c(-c4c(Cl)ccc(S(=O)(=O)NCCCCCCC)c4Cl)c4nc(c(-c5c(Cl)ccc(S(=O)(=O)NCCCCCCC)c5Cl)c5ccc2[nH]5)CC4)CC3)c1Cl", "measurement": ">4"}
{"smiles input": "CCNS(=O)(=O)c1ccc(Cl)c(-c2c3nc(c(-c4c(Cl)ccc(S(=O)(=O)NCC)c4Cl)c4ccc([nH]4)c(-c4c(Cl)ccc(S(=O)(=O)NCC)c4Cl)c4nc(c(-c5c(Cl)ccc(S(=O)(=O)NCC)c5Cl)c5ccc2[nH]5)CC4)CC3)c1Cl", "measurement": 1.8}
{"smiles input": "CNS(=O)(=O)c1ccc(F)c(-c2c3nc(c(-c4cc(S(=O)(=O)NC)ccc4F)c4ccc([nH]4)c(-c4cc(S(=O)(=O)NC)ccc4F)c4nc(c(-c5cc(S(=O)(=O)NC)ccc5F)c5ccc2[nH]5)CC4)CC3)c1", "measurement": 2.3}

Measured values drawn from patent US9670217B2 for this set.
